Recorded B1R Ant. h [10 μM] % Inhibition for the following compounds
molecular target: human bradykinin 1 receptor (B1R) (Homo sapiens, UniProt P46663); construct: expressed in transfected cells; host or cells: CHO K1 cells; assay: Functional investigation on the human bradykinin 1 receptor (B1R), Ca2+ FLIPR assay in CHO K1 hB1R cells; assay type: cell-based; settings: B1R antagonism human; test substance 10 μM; Ca2+ FLIPR, CHO K1 hB1R cells
Sequence (P46663 whole entry): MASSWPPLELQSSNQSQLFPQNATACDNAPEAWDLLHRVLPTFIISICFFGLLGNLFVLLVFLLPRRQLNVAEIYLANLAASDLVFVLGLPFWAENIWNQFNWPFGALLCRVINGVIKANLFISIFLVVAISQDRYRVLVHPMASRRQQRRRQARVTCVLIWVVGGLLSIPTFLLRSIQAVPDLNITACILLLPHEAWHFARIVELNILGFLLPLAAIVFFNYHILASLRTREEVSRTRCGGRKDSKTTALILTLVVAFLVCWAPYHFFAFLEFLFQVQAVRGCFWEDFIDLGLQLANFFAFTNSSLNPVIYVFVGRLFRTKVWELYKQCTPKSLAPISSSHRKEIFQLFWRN

| compound | B1R Ant. h [10 μM] % Inhibition / % |
| --- | --- |
| COc1cc(C)c(S(=O)(=O)N2CCCC(OCC(=O)NCCC3CCC(C(c4ccc(F)cc4)N(C)C)CC3)C2)c(C)c1C (centres unmarked) | 50 |
| CN(C)C(c1cccc(F)c1)C1CCC(CCNC(=O)COC2CCN(S(=O)(=O)c3ccc(Cl)cc3Cl)C2)CC1 (centres unmarked) | 72 |
| COc1ccc(S(=O)(=O)N2CCCCC2COCC(=O)NCC2CCC(C(c3ccc(Cl)cc3)N(C)C)CC2)cc1OC (centres unmarked) | −9 |
| COc1cc(C)c(S(=O)(=O)N2CCC(OCC(=O)NCC3CCC(C(c4cccc(F)c4)N(C)C)CC3)C2)c(C)c1 (centres unmarked) | 93 |
| CN(C)C(c1ccc(F)cc1)C1CCC(CCNC(=O)COC2CCN(S(=O)(=O)c3cccc(C(F)(F)F)c3)C2)CC1 (centres unmarked) | 7 |
| Cc1cc(C)c(S(=O)(=O)N(C)CCOCC(=O)NCCC2CCC(C(c3cccc(F)c3)N(C)C)CC2)c(C)c1 (centres unmarked) | −14 |
| COc1ccc(S(=O)(=O)N2CCC(OCC(=O)NCC3CCC(C(c4ccc(F)cc4)N(C)C)CC3)C2)cc1OC (centres unmarked) | −4 |
| CN(C)C(c1cccc(F)c1)C1CCC(NC(=O)COC2CCN(S(=O)(=O)c3ccc(Cl)cc3Cl)C2)CC1 (centres unmarked) | 50 |
| CN(C)C(c1ccc(F)cc1)C1CCC(CNC(=O)COCCN(C)S(=O)(=O)c2ccc(F)cc2)CC1 (centres unmarked) | 3 |
| CN(C)C(c1ccc(Cl)cc1)C1CCC(CNC(=O)COCCN(Cc2ccccc2)S(=O)(=O)c2ccccc2)CC1 (centres unmarked) | 12 |
| CN(C)C(c1ccccc1)C1CCC(CNC(=O)COC2CCN(S(=O)(=O)c3ccc(F)cc3)C2)CC1 (centres unmarked) | −1 |
| COc1cc(C)c(S(=O)(=O)N2CCC(CCOCC(=O)NCCC3CCC(C(c4ccc(Cl)cc4)N(C)C)CC3)CC2)c(C)c1C (centres unmarked) | −1 |
| CN(C)C(c1ccc(F)cc1)C1CCC(CCNC(=O)COCCN(C)S(=O)(=O)c2ccc(F)cc2)CC1 (centres unmarked) | 9 |
| CN(C)C(c1ccc(F)cc1)C1CCC(NC(=O)COCCN(Cc2ccccc2)S(=O)(=O)c2ccccc2)CC1 (centres unmarked) | 20 |
